Biological target: T1, human OX40 expressed on cells (293T-OX40, Jurkat-OX40) (human, UniProt P43489 29-277)
T1 sequence (looked up): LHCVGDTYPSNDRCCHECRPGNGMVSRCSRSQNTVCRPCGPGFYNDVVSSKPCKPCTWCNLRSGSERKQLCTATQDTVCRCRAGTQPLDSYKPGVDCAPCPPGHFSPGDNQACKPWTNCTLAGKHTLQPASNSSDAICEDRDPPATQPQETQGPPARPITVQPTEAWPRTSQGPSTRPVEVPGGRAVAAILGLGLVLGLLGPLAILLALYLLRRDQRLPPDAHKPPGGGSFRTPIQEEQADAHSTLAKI
Test: cell-based or functional assay
Readout name: IC50 of reporter gene assay (NF-kB-luciferase, Jurkat-OX40 cells + OX40L)

Find the recorded IC50 of reporter gene assay (NF-kB-luciferase, Jurkat-OX40 cells + OX40L) belonging to murine OX40 hybridoma antibody 3G4 (antibody, V domains shown, Purified murine monoclonal hybridoma antibody) VH: EVQLQQSGPELVKPGTSVKMSCKASGYRFTSYVLHWVRRKPGQGLEWIGYVNPFNDNTRYNEKFKAKATLTSDKSSSTAYMDLVSLTSEDSAVYYCSRGLYDYSYVMDYWGQGTSVTVSS VL: DIQMTQTTSSLSASLGDGVTITCQASQDIRNYLNWYQQKPDGTIKLLIYHTSKLHSGVPSRFSGGGSGTDFSLTISNLDQEDIATYFCQQSQTLPYTFGGGTKLEIKR and report it.
0.0361 µg/mL

How about this binder: murine OX40 hybridoma antibody 177G5 (antibody, V domains shown, Purified murine monoclonal hybridoma antibody) VH: EVQLVESGGGLVKPGGSLKLSCAASGFTFSDFYMYWVRQTPEKRLEWVATISDGGSYTYYPDIVKGRFTISRDNAKNNLNLQMSSLKSDDTAMYYCTTKNGNHIGFAYWGQGTLVTVSA VL: DIQMTQSPASLSVSVGETVTITCRASENIYSNLAWYQQKQGKSPQLLVYAATNLADGVPSRFSGSGSGTQYSLKINSLQSEDFGSYYCQHFWGIPWTFGGGTKLEIKR
0.253 µg/mL

How about this binder: murine OX40 hybridoma antibody 118A10 (antibody, V domains shown, Purified murine monoclonal hybridoma antibody) VH: EVKLDETGGGLVQPGRPMKLSCVASGFTFSDYWLNWVRQSPEKGLEWVAQIRNKPYHYETFYSESVKGRFTISRDDSKSSVYLQMNDLRGEDTGIYYCTGYFDYWGQGTTLTVSS VL: DIVLTQSPASLTISLGQRATISCRASQSVSTSTYSYIHWYQQKPGQPPRLLIKYASNLESGVPARFSGSGSGTDFTLNIHPVEEEDTATYYCQHSWGIPPTFGGGTKLEIKR
0.198 µg/mL

How about this binder: murine OX40 hybridoma antibody 1G2 (antibody, V domains shown, Purified murine monoclonal hybridoma antibody) VH: EVQLQQSGPDLVKPGASVKMSCKASGYRFTSYVMHWVKQRPGQGLEWIGYINPYNDNTRYNEKFKGKATLTSDKSSSTAYMELSSLTSEDSAVYYCAAYYGDYVYLDYWGQGTTLTVSS VL: DIQMTQTTSSLSASLGDRVTISCRASQDINNYLNWYQQKPDGTVKLLIYYTSRLHSGVPSRFSGSGSGTDYSLIISNLEQEDIATYFCQQGNTLPWTFGGGTKLEIKR
0.117 µg/mL

How about this binder: murine OX40 hybridoma antibody 119H2 (antibody, V domains shown, Purified murine monoclonal hybridoma antibody) VH: EVKLDATGGGLVQPGRPMKLSCVASGFTFSDYWMNWVRQSPEKGLEWVAQIRNKPYNYETFYSDSVKGRFTISRDDSKSSVYLQMNNLRAEDMGIYYCTGYFDYWGQGTTLTVSS VL: DIVLTQSPASLAVSLGQRATISCRASQSVSTSSYSYMHWYQQKPGQPPKLLIKYASNLESGVPARFSGSGSGTDFTLNIHPVEEEDTATYYCQHSWGIPPTFGGGTKLEIKR
0.179 µg/mL
